Tested on: SARS-CoV-2-NLuc
Experimental Details: microbe, parasite or virus in culture
Format: cell-based, SARS Coronavirus 2
Assay Conditions: Severe acute respiratory syndrome coronavirus, 48 h; read-out: MPro EC50
Decide using EC50 alone. Strictly below 40 nM: YES. Equal to or above 40 nM: NO.

These recorded examples may help you get a feel for the data.
- Molecule: "COc1cc(-c2cc3c(s2)c(=O)n(-c2cccnc2)c(=O)n3CCC#N)c(C#N)cc1F [Example 799]"
  Group: "NO"
- Molecule: "Cn1ncc2cncc(-n3c(=O)c4sc(-c5cc(C(F)(F)F)ccc5C#N)cc4n(CCC#N)c3=O)c21 [Example 822]"
  Group: "NO"
- Molecule: "COc1cc(-c2cc3c(s2)c(=O)n(-c2cc(C)cnn2)c(=O)n3CCC#N)c(C#N)cc1F [Example 812]"
  Group: "NO"
- Molecule: "Cn1cnc2cncc(-n3c(=O)c4sc(-c5cc(F)c(F)cc5Cl)cc4n(CCC#N)c3=O)c21 [Example 852]"
  Group: "NO"
- Molecule: "O=c1[nH]c2cc(-c3ccccc3Cl)sc2c(=O)n1-c1cncc2ccccc12 [Example 1]"
  Group: "YES"

Query block: Could you please tell me whether EC50 recorded for N#CCCn1c(=O)n(-c2cnccn2)c(=O)c2sc(-c3ccc(F)cc3C#N)cc21 [Example 829] is less than 40 nM?
Result block: NO

Query block: Could you please tell me whether EC50 recorded for COc1cc(-c2cc3[nH]c(=O)n(-c4cncc5ccccc45)c(=O)c3cc2OC)c(C#N)cc1F [Example 324] is less than 40 nM?
Result block: YES

Query block: Could you please tell me whether EC50 recorded for COc1cc(-c2cc3[nH]c(=O)n(-c4cnnc5ccccc45)c(=O)c3s2)c(Cl)cc1F [Example 745] is less than 40 nM?
Result block: NO

Query block: Could you please tell me whether EC50 recorded for COc1ccc(Cl)c(-c2cc3[nH]c(=O)n(-c4cncc5ccc(N6CCOCC6)cc45)c(=O)c3cc2F)c1 [Example 434] is less than 40 nM?
Result block: YES

Query block: Could you please tell me whether EC50 recorded for COc1ccc(Cl)c(-c2ccc3c(=O)n(-c4cncc5ccc(F)cc45)c(=O)[nH]c3c2)c1 [Example 371] is less than 40 nM?
Result block: NO
